# System: NCI-H1650
# run description: Cell proliferation assay (CellTiter-Glo)
# Type: cell-based, human
# conditions: Homo sapiens, NCI-H1650, 72 h, NCI-H1650 cells, 20 μM to 0.009 μM in serial 3-fold dilutions
# Description: All cells were obtained from the cell bank of the American Type Culture Collection (ATCC) and cultured in the supplier's recommended media supplemented with 10% FBS. The cell panel screen was measured using the CellTiter-Glo assay (Promega, Madison, WI) following a standard protocol. […] The plate was then read on a FlexStation 3 microplate luminometer (Molecular Devices, USA) to monitor the luminescence signal generated by the luciferase-catalyzed reaction of luciferin and ATP. […]
reported endpoint: pIC50
Quick note: pIC50 means taking -log10 of the concentration in moles per liter.

compound	study target	pIC50
CN[C@@H]1C[C@H]2O[C@@](C)([C@@H]1OC)n1c3ccccc3c3c4c(c5c6ccccc6n2c5c31)C(=O)NC4 [Staurosporine, staurosporine, reference compound]	NCI-H1650	7.66
CC(C)=CCC/C(C)=C/Cc1c(O)c(CC=C(C)C)c2c(c1O)C(=O)C1=C[C@@H]3C[C@H]4C(C)(C)O[C@@](C/C=C(\C)C=O)(C3=O)[C@@]14O2	NCI-H1650	6.01

Here is the next item to consider.
Record lookup: for NCI-H1650, what pIC50 belongs to CC(C)=CCC/C(C)=C/Cc1c(O)c(CC=C(C)C)c2c(c1O)C(=O)C1=C[C@@H]3C[C@H]4C(C)(C)O[C@@](C/C=C(\C)C(=O)O)(C3=O)[C@@]14O2 ?
5.84

----------
Percent Inhibition for assorted compounds
# Test system: A704
# run description: Cell panel screen (CellTiter-Glo)
# Format: cell-based, human
# conditions: A704 (Kidney), 20 micromolar, 72 hrs
# Description: All cells were obtained from the cell bank of the American Type Culture Collection (ATCC) and cultured in the supplier's recommended media supplemented with 10% FBS. The cell panel screen was measured using the CellTiter-Glo assay (Promega, Madison, WI) following a standard protocol. […] The plate was then read on a FlexStation 3 microplate luminometer (Molecular Devices, USA) to monitor the luminescence signal generated by the luciferase-catalyzed reaction of luciferin and ATP. […]
Entry rule: numbers only, all in %.

Below are worked cases with known answers.
compound	Percent Inhibition, %
CC(C)=CCCC1(C)C=Cc2c(O)c3c(c(CC=C(C)C)c2O1)OC12C(=CC4CC1C(C)(C)OC2(CC=C(C)C(=O)O)C4=O)C3=O (mixture of isomers) [GB8]	99
COc1cc(O)c2c(=O)c3cc4c(c(O)c3oc2c1CC=C(C)C)OC(C)(C)C=C4 [gl-12]	3
COc1c(CC=C(C)C)cc2c(=O)c3c(O)cc(O)cc3oc2c1OC [gl-6]	27
CCOC1C2C(=O)c3c(O)c4c(c(CC=C(C)C)c3O[C@@]23[C@H]2C[C@@H]1C(=O)[C@]3(C/C=C(/C)C(=O)O)OC2(C)C)OC(C)(CCC=C(C)C)C=C4 (some centres unmarked) [GB19]	99
CC(C)=CCc1c(O)cc2oc3cc(O)c(O)c(CC=C(C)C)c3c(=O)c2c1O [Ge9]	96

What value of Percent Inhibition has been recorded for this entry: CC(C)=CCc1c2c(c(O)c3c(=O)c4c(CC=C(C)C)c(O)c(O)cc4oc13)C=CC(C)(C)O2 [bn-4, Bannaxanthone D]
94

What Percent Inhibition value was documented for this compound, CC(C)=CCc1c(O)cc2oc3ccc(O)cc3c(=O)c2c1O [Ge-1] ?
34

Dear colleague, I am looking for the recorded Percent Inhibition of the following compound: O=C1c2c(O)cc(O)cc2OC(c2ccc(O)c(O)c2)C1O (centres unmarked) [gl-34]
-13

Which Percent Inhibition is listed for COC(=O)C1OC(Oc2cc(O)c3c(=O)cc(-c4ccc(O)cc4)oc3c2)C(O)C(O)C1O (centres unmarked) [WZ-6] ?
-9

Can you look up the measured Percent Inhibition of O=C1c2c(O)cc(O)cc2OC(c2ccc(O)cc2)C1c1c(O)cc(O)c2c(=O)cc(-c3ccc(O)c(O)c3)oc12 (centres unmarked) [WZ-4] for me?
-1

Give the measured Percent Inhibition of O=c1c2cc(O)ccc2oc2cccc(O)c12 [Gof3] .
23

For the compound shown here, C=C(C)C(O)Cc1c(O)cc2oc3cc(O)c(O)c(CC=C(C)C)c3c(=O)c2c1O (centres unmarked) [bn-17, Bannaxanthone B] , give the reported Percent Inhibition.
19

Need Percent Inhibition, item O=c1c2ccc(O)c(O)c2oc2cccc(O)c12 [gl-23]
-11

What measured Percent Inhibition goes with CC1(C)C=Cc2cc3c(=O)c4c(O)cc(O)cc4oc3c(O)c2O1 [Go-11] ?
24

Fill in: Percent Inhibition of O=C(c1ccc(O)c(O)c1)c1c(O)cc(O)cc1O [gl-25] is ___
-5

# lookup: Percent Inhibition of CC(C)=CCc1c2c(c(O)c3c1OC14C(=CC5CC1C(C)(C)OC4(CC=C(C)C(=O)O)C5=O)C3=O)C=CC(C)(C)O2 (centres unmarked) [GB27]
98

What Percent Inhibition value was documented for this compound, CC1(C)C=Cc2c(cc(O)c3c(=O)c4cc5c(c(O)c4oc23)OC(C)(C)C=C5)O1 [Go-16] ?
17

Returns the measured Percent Inhibition for the input compound. Input: CC(C)=CCCC1(C)C=Cc2c(O)c3c(c(CC=C(C)C)c2O1)OC12C(=CC4CC1C(C)(C)OC2(CC=C(C)C(=O)O)C4=O)C3=O (mixture of isomers) [GB14]
97

Which Percent Inhibition reading was recorded for the compound O=c1c2cc(O)c(O)cc2oc2cc(O)cc(O)c12 [Ge-17] ?
1

Which Percent Inhibition value is on record for O=c1c2cc(O)ccc2oc2cccc(O)c12 [gl-20] ?
13

Source listed as paper PMC4450297.
